Property: MIC; scope: individual compounds
- Test system: Moraxella catarrhalis
- test.name: Antibacterial activity against Moraxella catarrhalis clinical isolate 125 after 18 hrs by NCCLS agar dilution method
- Assay type: functional
- condition.parameters: clinical isolate 125, 18 h
Report the figure in µg/mL without appending any unit label.

Note to self: MIC recorded for Cc1cn(C[C@H]2CN(c3ccc(N4CCN(C(=O)CNC(=O)c5ccc([N+](=O)[O-])o5)CC4)c(F)c3)C(=O)O2)nn1 was 1

---
Note to self: MIC recorded for O=C(NCC(=O)N1CCN(c2ccc(N3C[C@H](Cn4ccnn4)OC3=O)cc2F)CC1)c1cccnc1 was 8

Note to self: MIC recorded for O=C(NCC(=O)N1CCN(c2ccc(N3C[C@H](Cn4ccnn4)OC3=O)cc2F)CC1)c1ccc([N+](=O)[O-])o1 was 1

Note to self: MIC recorded for Cc1cn(C[C@H]2CN(c3ccc(N4CCN(C(=O)CNC(=O)c5ccccc5)CC4)c(F)c3)C(=O)O2)nn1 was 4

Note to self: MIC recorded for O=C(NCC(=O)N1CCN(c2ccc(N3C[C@H](Cn4ccnn4)OC3=O)cc2F)CC1)c1cccs1 was 8

Note to self: MIC recorded for Cc1cn(C[C@H]2CN(c3ccc(N4CCN(C(=O)CNC(=O)c5cccnc5)CC4)c(F)c3)C(=O)O2)nn1 was 4

Note to self: MIC recorded for Cc1cn(C[C@H]2CN(c3ccc(N4CCN(C(=O)CNC(=O)c5cccs5)CC4)c(F)c3)C(=O)O2)nn1 was 8
